# maps each entry to its inhibition of growth at 10 µM
Tested on: RPMI-8226
Assay: Growth inhibition of human RPMI8226 cells at 10 uM relative to control
Assay type: functional
Details: read-out: GI
// return numeric value only (unit: %, not printed)

# count of solved cases: 8
Cc1ccccc1-n1c(C)nc2cc(N3C(=O)CSC3c3ccc(Cl)cc3)ccc2c1=O (centres undefined) :: 9.2
Cc1ccccc1-n1c(C)nc2cc(NC(=O)c3ccccc3)ccc2c1=O :: 2
CCOC(=O)Nc1ccc2c(=O)n(-c3ccccc3C)c(C)nc2c1 :: 6.5
Cc1ccccc1-n1c(C)nc2cc(N)ccc2c1=S :: 4
Cc1ccccc1-n1c(C)nc2cc(NS(=O)(=O)c3ccccc3)ccc2c1=O :: 12
Cc1ccccc1-n1c(C)nc2cc(NC(=O)c3ccc(Cl)cc3)ccc2c1=O :: 55.4
Cc1ccccc1-n1c(C)nc2cc(N3C(=O)CSC3c3ccc(F)cc3)ccc2c1=O (centres undefined) :: 10
Cc1ccccc1-n1c(C)nc2cc(N3C(=O)CSC3c3ccccc3)ccc2c1=O (centres undefined) :: 21.4

# input for lookup
What value of inhibition of growth at 10 µM has been recorded for this entry: Cc1ccccc1-n1c(C)nc2cc(NC(=O)c3cccs3)ccc2c1=O 8
